- Test system: Liver microsomes
- procedure.summary: Intrinsic clearance in rat liver microsomes assessed per mg of protein
- Format: ADME, Microsome
Rule: clearance of 70 µL/min/mg or more gives rule met; anything lower gives rule not met.

Request: Assess whether reported clearance for CC[C@H](CO)Nc1nc(C)nc2c1c(C)nn2-c1ccc(OC)cc1C sits at 70 µL/min/mg or higher.
Response: rule not met

Request: Assess whether reported clearance for CCCNCc1nnc(Nc2nc(C)nc3c2c(C)nn3-c2ccc(OC)cc2C)o1 sits at 70 µL/min/mg or higher.
Response: rule not met

Request: Assess whether reported clearance for CCCNCc1nc(Nc2nc(C)nc3c2c(C)nn3-c2ccc(OC)cc2C)no1 sits at 70 µL/min/mg or higher.
Response: rule not met

Request: Assess whether reported clearance for CCCNCc1noc(Nc2nc(C)nc3c2c(C)nn3-c2ccc(OC)cc2C)n1 sits at 70 µL/min/mg or higher.
Response: rule not met

Request: Assess whether reported clearance for CCCN(CCOC)c1nc(C)nc2c1c(C)nn2-c1ccc(OC)nc1C sits at 70 µL/min/mg or higher.
Response: rule met

Request: Assess whether reported clearance for CC[C@@H](CO)Nc1nc(C)nc2c1c(C)nn2-c1ccc(OC)cc1C sits at 70 µL/min/mg or higher.
Response: rule not met

Request: Assess whether reported clearance for CCC[C@@H](CO)Nc1nc(C)nc2c1c(C)nn2-c1ccc(OC)cc1C sits at 70 µL/min/mg or higher.
Response: rule not met

Request: Assess whether reported clearance for CCCNCc1nccn1Nc1nc(C)nc2c1c(C)nn2-c1ccc(OC)cc1C sits at 70 µL/min/mg or higher.
Response: rule not met

Request: Assess whether reported clearance for CCCN(CCOC)c1nc(C)nc2c1cnn2-c1ccc(OC)cc1C sits at 70 µL/min/mg or higher.
Response: rule met

Request: Assess whether reported clearance for CCCN(CCO)c1nc(C)nc2c1c(C)nn2-c1ccc(OC)cc1C sits at 70 µL/min/mg or higher.
Response: rule met

Further cases:
Request: Assess whether reported clearance for CCCN(CCOC)c1nc(C)nc2c1c(C)nn2-c1ccc(C(N)=O)nc1C sits at 70 µL/min/mg or higher.
Response: rule not met

Request: Assess whether reported clearance for CCCN(CCOC)c1nc(C)nc2c1c(C)nn2-c1ccc(C(N)=O)cc1C sits at 70 µL/min/mg or higher.
Response: rule not met

Request: Assess whether reported clearance for COCCN(CCOC)c1nc(C)nc2c1c(C)nn2-c1ccc(OC)cc1C sits at 70 µL/min/mg or higher.
Response: rule not met

Request: Assess whether reported clearance for CC[C@H](COC)Nc1nc(C)nc2c1c(C)nn2-c1ccc(OC)cc1C sits at 70 µL/min/mg or higher.
Response: rule not met

Request: Assess whether reported clearance for CCC[C@H](CO)Nc1nc(C)nc2c1c(C)nn2-c1ccc(OC)cc1C sits at 70 µL/min/mg or higher.
Response: rule not met

Request: Assess whether reported clearance for CCCN(CCOC)c1nc(C)nc2c1c(C)nn2-c1ccc(OC)nc1OC sits at 70 µL/min/mg or higher.
Response: rule met

Request: Assess whether reported clearance for CCN(CCOC)c1nc(C)nc2c1c(C)nn2-c1ccc(OC)cc1C sits at 70 µL/min/mg or higher.
Response: rule met
